- System: Escherichia coli
- protocolNotes: Binding affinity to His6-tagged Escherichia coli FabF C163Q mutant expressed in Escherichia coli BL21 (DE3) assessed Gibbs free energy change measured after 200 sec by isothermal titration calorimetry
Kindly supply the reported deltaG values for the records listed here.
One number for each entry, in kcal/mol.

[
  {
    "molecule": "C[C@]12C[C@@]34C=CC(=O)[C@@](C)(CCC(=O)Nc5c(O)ccc(C(=O)O)c5O)[C@@H]3[C@H](C[C@@H]1C4)O2",
    "deltaG (kcal/mol)": -10
  },
  {
    "molecule": "C=C1C[C@]23C=C(SCCO)C(=O)[C@@](C)(CCC(=O)Nc4c(O)ccc(C(=O)O)c4O)[C@@H]2CC1CC3 (single isomer, unassigned)",
    "deltaG (kcal/mol)": -8.8
  },
  {
    "molecule": "C=C1C[C@@]23CCC1C[C@H]2[C@](C)(CCC(=O)Nc1c(O)ccc(C(=O)O)c1O)C(=O)[C@@H]1O[C@@H]13 (single isomer, unassigned)",
    "deltaG (kcal/mol)": -9.25
  }
]

From here, focus on the item given below.
[in] API: value(readout=deltaG, system=Escherichia coli) for record C=C1C[C@@]23C=CC(=O)[C@@](C)(CCC(=O)Nc4c(O)ccc(C(=O)O)c4O)[C@@H]2C[C@@H]1CC3 [PLATENCIN]
[out] -10.3

* * *

- Test system: Staphylococcus aureus
- protocolNotes: Antibacterial activity against methicillin resistant Staphylococcus aureus assessed as inhibition of bacterial growth measured after 18 hrs in presence of 10% human serum by resazurin dye based broth dilution assay
- Format: functional
Would you mind telling me the reported MIC of each entry?
Numbers only, in µg/mL.

[
  {
    "compound": "C=C1C[C@]23C=C(Sc4ccoc4C)C(=O)[C@@](C)(CCC(=O)Nc4c(O)ccc(C(=O)O)c4O)[C@@H]2CC1CC3 (single isomer, unassigned)",
    "assayTarget": "Staphylococcus aureus",
    "measured": 16
  },
  {
    "compound": "C=C1C[C@@]23C=CC(=O)[C@@](C)(CCC(=O)Nc4c(O)ccc(C(=O)O)c4O)[C@@H]2C[C@@H]1CC3 [PLATENCIN]",
    "assayTarget": "Staphylococcus aureus",
    "measured": 8
  }
]

[in] Given C=C1C[C@]23C=C(Sc4ccccc4C)C(=O)[C@@](C)(CCC(=O)Nc4c(O)ccc(C(=O)O)c4O)[C@@H]2CC1CC3 (single isomer, unassigned) , state its recorded MIC.
[out] 32

* * *

- System: Escherichia coli
- protocolNotes: Binding affinity to His6-tagged Escherichia coli FabF C163Q mutant expressed in Escherichia coli BL21 (DE3) assessed as change in entropy measured after 200 sec by isothermal titration calorimetry
propertyLabel: -TdeltaS (kcal/mol)
One number for each entry, in kcal/mol.

[
  {
    "compound": "C=C1C[C@@]23CCC1C[C@H]2[C@](C)(CCC(=O)Nc1c(O)ccc(C(=O)O)c1O)C(=O)[C@@H]1O[C@@H]13 (single isomer, unassigned)",
    "propertyLabel": "-TdeltaS",
    "unitAnnotation": "kcal/mol",
    "measured": -7.59
  },
  {
    "compound": "C=C1C[C@]23C=C(SCCO)C(=O)[C@@](C)(CCC(=O)Nc4c(O)ccc(C(=O)O)c4O)[C@@H]2CC1CC3 (single isomer, unassigned)",
    "propertyLabel": "-TdeltaS",
    "unitAnnotation": "kcal/mol",
    "measured": -7.72
  },
  {
    "compound": "C[C@]12C[C@@]34C=CC(=O)[C@@](C)(CCC(=O)Nc5c(O)ccc(C(=O)O)c5O)[C@@H]3[C@H](C[C@@H]1C4)O2",
    "propertyLabel": "-TdeltaS",
    "unitAnnotation": "kcal/mol",
    "measured": -7.95
  }
]

Now let's try a different one.
[in] Any idea what -TdeltaS was measured for C=C1C[C@@]23C=CC(=O)[C@@](C)(CCC(=O)Nc4c(O)ccc(C(=O)O)c4O)[C@@H]2C[C@@H]1CC3 [PLATENCIN] ?
[out] -7.44

* * *

- Tested on: Staphylococcus aureus
- protocolNotes: Inhibition of Staphylococcus aureus FabH A81V mutant assessed as bacterial growth inhibition measured after 18 hrs by resazurin dye based broth dilution assay
propertyLabel: MIC (µg/mL)
Give bare numbers, in µg/mL.

[
  {
    "molecule": "CC1(C)S[C@@H]2[C@H](NC(=O)[C@H](N)c3ccccc3)C(=O)N2[C@H]1C(=O)O",
    "unitAnnotation": "µg/mL",
    "MIC": 16
  }
]

Now for another entry.
[in] Requested field: MIC. Item: C=C1C[C@]23C=C(SCc4ccccc4)C(=O)[C@@](C)(CCC(=O)Nc4c(O)ccc(C(=O)O)c4O)[C@@H]2CC1CC3 (single isomer, unassigned)
[out] 8

* * *

- Test system: Staphylococcus aureus
- protocolNotes: Inhibition of Staphylococcus aureus FabH A81V mutant assessed as bacterial growth inhibition measured after 18 hrs by resazurin dye based broth dilution assay
propertyLabel: MIC (µg/mL)
Give bare numbers, in µg/mL.

Please give MIC, item by item, for the list that follows.
1. C=C1C[C@]23C=C(Sc4ccoc4C)C(=O)[C@@](C)(CCC(=O)Nc4c(O)ccc(C(=O)O)c4O)[C@@H]2CC1CC3 (single isomer, unassigned)
2. C=C1C[C@]23C=C(Sc4ccccc4C)C(=O)[C@@](C)(CCC(=O)Nc4c(O)ccc(C(=O)O)c4O)[C@@H]2CC1CC3 (single isomer, unassigned)
3. C=C1C[C@]23C=C(Sc4ccc(Br)cc4)C(=O)[C@@](C)(CCC(=O)Nc4c(O)ccc(C(=O)O)c4O)[C@@H]2CC1CC3 (single isomer, unassigned)
4. C=C1C[C@]23C=C(Sc4ccc(C)cc4)C(=O)[C@@](C)(CCC(=O)Nc4c(O)ccc(C(=O)O)c4O)[C@@H]2CC1CC3 (single isomer, unassigned)

[out]
8
4
8
16

* * *

- System: Escherichia coli
- protocolNotes: Binding affinity to His6-tagged Escherichia coli FabH expressed in Escherichia coli BL21 (DE3) assessed as decrease in melting temperature at 10 uM by SYPRO orange based differential scanning fluorimetry
The source made the active and inactive calls. The calls are words filed in the database; no cut-off is given here.

[
  {
    "compound": "C=C1C[C@]23C=C(SCCC)C(=O)[C@@](C)(CCC(=O)Nc4c(O)ccc(C(=O)O)c4O)[C@@H]2CC1CC3 (single isomer, unassigned)",
    "Activity": "Active"
  },
  {
    "compound": "C=C1C[C@]23C=C(Sc4cccs4)C(=O)[C@@](C)(CCC(=O)Nc4c(O)ccc(C(=O)O)c4O)[C@@H]2CC1CC3 (single isomer, unassigned)",
    "Activity": "Active"
  },
  {
    "compound": "C=C1C[C@@]23C=CC(=O)[C@@](C)(CCC(=O)Nc4c(O)ccc(C(=O)O)c4O)[C@@H]2C[C@@H]1CC3 [PLATENCIN]",
    "Activity": "Active"
  }
]

* * *

- System: Escherichia coli
- protocolNotes: Binding affinity to His6-tagged Escherichia coli FabF C163Q mutant expressed in Escherichia coli BL21 (DE3) assessed as stoichiometry ratio measured after 200 sec by isothermal titration calorimetry
Exercise: for every item that follows, state its recorded Ratio.
Answers are plain numbers.

# example entries with known answers
[
  {
    "compound": "C=C1C[C@@]23C=CC(=O)[C@@](C)(CCC(=O)Nc4c(O)ccc(C(=O)O)c4O)[C@@H]2C[C@@H]1CC3 [PLATENCIN]",
    "measured": 1.12
  },
  {
    "compound": "C=C1C[C@@]23CCC1C[C@H]2[C@](C)(CCC(=O)Nc1c(O)ccc(C(=O)O)c1O)C(=O)[C@@H]1O[C@@H]13 (single isomer, unassigned)",
    "measured": 1.17
  },
  {
    "compound": "C=C1C[C@]23C=C(SCCO)C(=O)[C@@](C)(CCC(=O)Nc4c(O)ccc(C(=O)O)c4O)[C@@H]2CC1CC3 (single isomer, unassigned)",
    "measured": 1.17
  }
]

Would you kindly look at the next entry?
[in] Look up Ratio for this compound: C[C@]12C[C@@]34C=CC(=O)[C@@](C)(CCC(=O)Nc5c(O)ccc(C(=O)O)c5O)[C@@H]3[C@H](C[C@@H]1C4)O2
[out] 1.16

* * *

- Tested on: Staphylococcus aureus
- protocolNotes: Inhibition of Staphylococcus aureus FabH A81V/A111T mutant assessed as bacterial growth inhibition measured after 18 hrs by resazurin dye based broth dilution assay
propertyLabel: MIC (µg/mL)
Give bare numbers, in µg/mL.

Reference set (6 entries):
[
  {
    "molecule": "C=C1C[C@]23C=C(Sc4ccc(C)cc4)C(=O)[C@@](C)(CCC(=O)Nc4c(O)ccc(C(=O)O)c4O)[C@@H]2CC1CC3 (single isomer, unassigned)",
    "propertyLabel": "MIC",
    "unitAnnotation": "µg/mL",
    "measured": 16
  },
  {
    "molecule": "CC1(C)S[C@@H]2[C@H](NC(=O)[C@H](N)c3ccccc3)C(=O)N2[C@H]1C(=O)O",
    "propertyLabel": "MIC",
    "unitAnnotation": "µg/mL",
    "measured": 32
  },
  {
    "molecule": "C=C1C[C@]23C=C(Sc4ccccc4C)C(=O)[C@@](C)(CCC(=O)Nc4c(O)ccc(C(=O)O)c4O)[C@@H]2CC1CC3 (single isomer, unassigned)",
    "propertyLabel": "MIC",
    "unitAnnotation": "µg/mL",
    "measured": 4
  },
  {
    "molecule": "C=C1C[C@]23C=C(Sc4ccoc4C)C(=O)[C@@](C)(CCC(=O)Nc4c(O)ccc(C(=O)O)c4O)[C@@H]2CC1CC3 (single isomer, unassigned)",
    "propertyLabel": "MIC",
    "unitAnnotation": "µg/mL",
    "measured": 8
  },
  {
    "molecule": "C=C1C[C@@]23C=CC(=O)[C@@](C)(CCC(=O)Nc4c(O)ccc(C(=O)O)c4O)[C@@H]2C[C@@H]1CC3 [PLATENCIN]",
    "propertyLabel": "MIC",
    "unitAnnotation": "µg/mL",
    "measured": 32
  },
  {
    "molecule": "C=C1C[C@]23C=C(Sc4ccc(Br)cc4)C(=O)[C@@](C)(CCC(=O)Nc4c(O)ccc(C(=O)O)c4O)[C@@H]2CC1CC3 (single isomer, unassigned)",
    "propertyLabel": "MIC",
    "unitAnnotation": "µg/mL",
    "measured": 4
  }
]

[in] State the recorded MIC for this entry: C=C1C[C@]23C=C(SCc4ccccc4)C(=O)[C@@](C)(CCC(=O)Nc4c(O)ccc(C(=O)O)c4O)[C@@H]2CC1CC3 (single isomer, unassigned)
[out] 4
